Reference source: patent US20080064679A1

endpoint: Solubility (water-soluble)

CC1=CC[C@@H]2[C@@H](C1)c1c(O)cc(C(C)(C)CCCCn3cncn3)cc1OC2(C)C [O-2716, 1,2,4-Triazol-1-yl] : No
CNC(=O)CCCCC(C)(C)c1cc(O)c2c(c1)OC(C)(C)[C@@H]1CC=C(C)C[C@@H]21 [O-2490, N-(Methyl)carboxamido] : No
CC1=CC[C@@H]2[C@@H](C1)c1c(O)cc(C(C)(C)CCCCC(=O)N3CCCCC3)cc1OC2(C)C [O-2373, Piperidino-carboxamido] : No

====

molecular target: human CB2 receptor (Homo sapiens, UniProt P34972); construct: expressed in transfected cells; b94 says HEK for CB2; experiment: CB2 receptor binding, [3H]CP55,940 displacement in membranes of transfected cells; conditions: Table 1B; mean±SEM; read-out: CB2 Ki
Sequence (P34972 whole entry): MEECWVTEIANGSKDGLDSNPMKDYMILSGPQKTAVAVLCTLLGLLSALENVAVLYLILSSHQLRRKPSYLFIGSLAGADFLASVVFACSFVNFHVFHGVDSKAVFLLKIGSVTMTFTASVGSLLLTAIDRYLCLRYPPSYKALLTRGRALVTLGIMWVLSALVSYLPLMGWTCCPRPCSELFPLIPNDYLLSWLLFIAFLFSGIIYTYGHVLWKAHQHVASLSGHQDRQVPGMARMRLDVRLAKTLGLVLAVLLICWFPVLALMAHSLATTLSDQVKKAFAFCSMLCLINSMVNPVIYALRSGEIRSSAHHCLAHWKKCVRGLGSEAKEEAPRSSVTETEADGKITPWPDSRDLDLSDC
Please assign not satisfied whenever Ki is at or above 2 nM, and satisfied whenever it is below.

Known results for molecules:
CC1=CC[C@@H]2[C@@H](C1)c1c(O)cc(C(C)(C)CCCCC(=O)N3CCCC3)cc1OC2(C)C : not satisfied
CC1=CC[C@@H]2[C@@H](C1)c1c(O)cc(C(C)(C)CCCCC(N)=O)cc1OC2(C)C : satisfied

Determine if CC1=CC[C@@H]2[C@@H](C1)c1c(O)cc(C(C)(C)CCCCC(=O)NN3CCOCC3)cc1OC2(C)C shows Ki strictly lower than 2 nM.
not satisfied

Repeat with CC1=CC[C@@H]2[C@@H](C1)c1c(O)cc(C(C)(C)CCCCC(=O)NN3CCCC3)cc1OC2(C)C
not satisfied

# repeat for CC1=CC[C@@H]2[C@@H](C1)c1c(O)cc(C(C)(C)CCCCNC(=O)N3CCOCC3)cc1OC2(C)C [O-2619, Morpholino-1-carboxylic acid amide]
not satisfied

// repeat for CC1=CC[C@@H]2[C@@H](C1)c1c(O)cc(C(C)(C)CCCCC(=O)N3CCCCC3)cc1OC2(C)C and report
satisfied

====

endpoint: Solubility (water-soluble)

// known answers, use as guide
CC1=CC[C@@H]2[C@@H](C1)c1c(O)cc(C(C)(C)CCCCn3cccn3)cc1OC2(C)C : No
CC1=CC[C@@H]2[C@@H](C1)c1c(O)cc(C(C)(C)CCCCC(=O)N3CCCC3)cc1OC2(C)C : No
CC1=CC[C@@H]2[C@@H](C1)c1c(O)cc(C(C)(C)CCCCC(N)=O)cc1OC2(C)C : No
CC1=CC[C@@H]2[C@@H](C1)c1c(O)cc(C(C)(C)CCCCC(=O)NN3CCOCC3)cc1OC2(C)C : No
CC1=CC[C@@H]2[C@@H](C1)c1c(O)cc(C(C)(C)CCCCC(=O)N3CCN(C)CC3)cc1OC2(C)C [O-2381, Methylepiperazino-carboxamido] : No
CC1=CC[C@@H]2[C@@H](C1)c1c(O)cc(C(C)(C)CCCCn3ccnc3C)cc1OC2(C)C : Yes
CC1=CC[C@@H]2[C@@H](C1)c1c(O)cc(C(C)(C)CCCCC(=O)N3CCOCC3)cc1OC2(C)C : No
CC1=CC[C@@H]2[C@@H](C1)c1c(O)cc(C(C)(C)CCCCc3ncc[nH]3)cc1OC2(C)C : Yes

Provide Solubility (water-soluble) values for the following items, in order.
1. CC1=CC[C@@H]2[C@@H](C1)c1c(O)cc(C(C)(C)CCCCC(=O)NN3CCCCCC3)cc1OC2(C)C
2. CC1=CC[C@@H]2[C@@H](C1)c1c(O)cc(C(C)(C)CCCCC(=O)N3CCCCCC3)cc1OC2(C)C
3. CC1=CC[C@@H]2[C@@H](C1)c1c(O)cc(C(C)(C)CCCCNC(=O)N3CCOCC3)cc1OC2(C)C [O-2619, Morpholino-1-carboxylic acid amide]
4. CC1=CC[C@@H]2[C@@H](C1)c1c(O)cc(C(C)(C)CCCCC(=O)NN3CCCC3)cc1OC2(C)C

1: No; 2: No; 3: No; 4: No
